target: Kv1.5 T479A mutant channel (Homo sapiens, UniProt P22460, T479A); construct: subcloned as a fragment back into full-length Kv1.5; assay: Whole-cell patch-clamp block of mutant Kv1.5 current in HEK293 cells; conditions: Kv1.5 T479A
Sequence (P22460 whole entry T479A, the tested form may be a part): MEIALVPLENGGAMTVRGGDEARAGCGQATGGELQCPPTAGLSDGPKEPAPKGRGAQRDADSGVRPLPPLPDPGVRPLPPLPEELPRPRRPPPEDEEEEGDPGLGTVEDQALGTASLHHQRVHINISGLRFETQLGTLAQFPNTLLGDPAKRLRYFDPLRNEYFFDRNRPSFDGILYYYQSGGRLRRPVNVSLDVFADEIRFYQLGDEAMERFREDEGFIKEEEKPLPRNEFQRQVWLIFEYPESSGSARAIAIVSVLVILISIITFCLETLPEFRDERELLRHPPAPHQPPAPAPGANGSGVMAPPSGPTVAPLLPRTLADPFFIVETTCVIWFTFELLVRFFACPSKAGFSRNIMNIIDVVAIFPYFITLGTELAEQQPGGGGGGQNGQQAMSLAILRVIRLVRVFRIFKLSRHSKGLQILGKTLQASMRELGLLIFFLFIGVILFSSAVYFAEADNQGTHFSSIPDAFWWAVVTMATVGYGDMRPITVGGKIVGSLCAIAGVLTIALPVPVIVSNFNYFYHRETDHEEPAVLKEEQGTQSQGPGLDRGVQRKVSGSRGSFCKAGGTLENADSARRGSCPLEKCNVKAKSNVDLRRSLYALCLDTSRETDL
pIC50: −log10 of the molar value.
Reported Metric: pIC50

compound="O=C(NCC1CCCCN1)c1cc(OCC(F)(F)F)ccc1OCC(F)(F)F (stereo not shown) [Flecainide]" value_measured=6.72

----------
molecular target: Kv1.5 V505A mutant channel (Homo sapiens, UniProt P22460, V505A); construct: subcloned as a fragment back into full-length Kv1.5; expressed in transfected cells; host or cells: HEK293, transient transfection; assay: Whole-cell patch-clamp block of mutant Kv1.5 current in HEK293 cells; format: cell-based; conditions: Kv1.5 V505A
Sequence (P22460 whole entry V505A, the tested form may be a part): as the sequence (P22460 whole entry T479A, the tested form may be a part) above, with A479T, V505A counted along it
Reported Metric: IC50 (µM)

compound="O=C(NCC1CCCCN1)c1cc(OCC(F)(F)F)ccc1OCC(F)(F)F (stereo not shown) [Flecainide]" result_unit=µM value_measured=13.1

----------
target: Kv1.5 I502A mutant channel (Homo sapiens, UniProt P22460, I502A); construct: subcloned as a fragment back into full-length Kv1.5; test: Whole-cell patch-clamp block of mutant Kv1.5 current in HEK293 cells; conditions: Kv1.5 I502A
Sequence (P22460 whole entry I502A, the tested form may be a part): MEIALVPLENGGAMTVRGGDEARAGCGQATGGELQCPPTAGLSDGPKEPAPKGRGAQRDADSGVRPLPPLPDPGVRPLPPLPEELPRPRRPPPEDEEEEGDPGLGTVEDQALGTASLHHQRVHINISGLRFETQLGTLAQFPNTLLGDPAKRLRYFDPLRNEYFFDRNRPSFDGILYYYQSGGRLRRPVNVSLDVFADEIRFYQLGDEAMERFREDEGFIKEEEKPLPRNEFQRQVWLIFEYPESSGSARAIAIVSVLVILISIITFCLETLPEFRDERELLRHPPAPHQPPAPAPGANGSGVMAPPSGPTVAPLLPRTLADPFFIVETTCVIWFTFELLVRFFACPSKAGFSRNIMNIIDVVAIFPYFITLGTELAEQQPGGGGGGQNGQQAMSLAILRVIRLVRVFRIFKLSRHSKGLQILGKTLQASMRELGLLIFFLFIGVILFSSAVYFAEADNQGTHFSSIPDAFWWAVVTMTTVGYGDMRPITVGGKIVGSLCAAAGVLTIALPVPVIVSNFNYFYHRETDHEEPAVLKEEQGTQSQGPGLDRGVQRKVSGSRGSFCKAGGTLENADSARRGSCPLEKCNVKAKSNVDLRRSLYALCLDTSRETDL
Reported Metric: IC50 (µM)

compound="O=C(NCC1CCCCN1)c1cc(OCC(F)(F)F)ccc1OCC(F)(F)F (stereo not shown) [Flecainide]" value_measured=92

----------
biological target: Kv1.5 I502L mutant channel (Homo sapiens, UniProt P22460, I502L); construct: subcloned as a fragment back into full-length Kv1.5; assay: Whole-cell patch-clamp block of mutant Kv1.5 current in HEK293 cells; conditions: Kv1.5 I502L
Sequence (P22460 whole entry I502L, the tested form may be a part): as the sequence (P22460 whole entry I502A, the tested form may be a part) above, with A502L counted along it
Reported Metric: IC50 (µM)

compound="O=C(NCC1CCCCN1)c1cc(OCC(F)(F)F)ccc1OCC(F)(F)F (stereo not shown) [Flecainide]" reported_metric=IC50 value_measured=10.8

----------
biological target: Kv1.5 I508F mutant channel (Homo sapiens, UniProt P22460, I508F); construct: subcloned as a fragment back into full-length Kv1.5; assay: Whole-cell patch-clamp block of mutant Kv1.5 current in HEK293 cells; details: Kv1.5 I508F
pIC50: −log10 of the molar value.
Reported Metric: pIC50

compound="O=C(NCC1CCCCN1)c1cc(OCC(F)(F)F)ccc1OCC(F)(F)F (stereo not shown) [Flecainide]" value_measured=4.13

This collection of values is drawn from patent US20090053721A1.
